Below: a set of entries, each annotated with reported % Metabolites released after 3 h with CD10 10 nM.
Target: CD10 (recombinant human neprilysin, R&D systems, Ref 1182-ZN) (human, UniProt P08473 53-750)
Sequence (P08473 53-750 limits assumed): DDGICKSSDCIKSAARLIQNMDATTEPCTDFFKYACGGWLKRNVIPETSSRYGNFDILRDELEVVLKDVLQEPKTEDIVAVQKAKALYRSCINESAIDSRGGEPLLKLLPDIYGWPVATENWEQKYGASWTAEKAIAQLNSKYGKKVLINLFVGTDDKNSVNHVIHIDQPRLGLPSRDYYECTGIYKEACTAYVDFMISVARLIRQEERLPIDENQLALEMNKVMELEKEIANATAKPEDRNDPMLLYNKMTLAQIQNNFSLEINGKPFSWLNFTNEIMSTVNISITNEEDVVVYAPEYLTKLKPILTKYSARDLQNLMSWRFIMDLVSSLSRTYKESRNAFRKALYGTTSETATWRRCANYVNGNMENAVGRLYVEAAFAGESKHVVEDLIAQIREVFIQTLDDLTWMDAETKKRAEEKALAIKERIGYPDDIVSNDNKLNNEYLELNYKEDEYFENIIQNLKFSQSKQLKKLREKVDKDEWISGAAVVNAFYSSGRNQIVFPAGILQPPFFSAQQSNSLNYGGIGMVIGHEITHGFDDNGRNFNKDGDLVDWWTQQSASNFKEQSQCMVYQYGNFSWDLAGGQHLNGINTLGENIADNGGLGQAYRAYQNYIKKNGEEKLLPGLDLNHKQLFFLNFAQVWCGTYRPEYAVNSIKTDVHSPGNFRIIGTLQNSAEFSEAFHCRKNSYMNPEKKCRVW
Experiment: cell-based or functional assay
* marks the point of attachment. Doxorubicin(3'-N) = COc1cccc2c1C(=O)c1c(O)c3c(c(O)c1C2=O)C[C@@](O)(C(=O)CO)C[C@@H]3O[C@H]1C[C@H](N*)[C@H](O)[C@H](C)O1; Phosphonoacetyl = O=C(CP(=O)(O)O)*
Readout: % Metabolites released after 3 h with CD10 10 nM

- Binder: "Phosphonoacetyl-ALPF-{Doxorubicin(3'-N)} (SMILES COc1cccc2c1C(=O)c1c(O)c3c(c(O)c1C2=O)C[C@@](O)(C(=O)CO)C[C@@H]3O[C@H]1C[C@H](NC(=O)[C@H](Cc2ccccc2)NC(=O)[C@@H]2CCCN2C(=O)[C@H](CC(C)C)NC(=O)[C@H](C)NC(=O)CP(=O)(O)O)[C@H](O)[C@H](C)O1) [PhAc-ALPF-doxorubicin]"
  Observed Result: "0%"
- Binder: "Phosphonoacetyl-DLGP-{Doxorubicin(3'-N)} (SMILES COc1cccc2c1C(=O)c1c(O)c3c(c(O)c1C2=O)C[C@@](O)(C(=O)CO)C[C@@H]3O[C@H]1C[C@H](NC(=O)[C@@H]2CCCN2C(=O)CNC(=O)[C@H](CC(C)C)NC(=O)[C@H](CC(=O)O)NC(=O)CP(=O)(O)O)[C@H](O)[C@H](C)O1) [PhAc-DLGP-doxorubicin]"
  Observed Result: "0%"
- Binder: "Phosphonoacetyl-TSGP-{Doxorubicin(3'-N)} (SMILES COc1cccc2c1C(=O)c1c(O)c3c(c(O)c1C2=O)C[C@@](O)(C(=O)CO)C[C@@H]3O[C@H]1C[C@H](NC(=O)[C@@H]2CCCN2C(=O)CNC(=O)[C@H](CO)NC(=O)[C@@H](NC(=O)CP(=O)(O)O)[C@@H](C)O)[C@H](O)[C@H](C)O1) [PhAc-TSGP-doxorubicin]"
  Observed Result: "0%"

// data source = patent US20160058880A1
